These data points were gathered from patent US20250296938A1.

- target_desc: K-Ras (G12C) (Homo sapiens, UniProt P01116, G12C)
- Sequence (P01116 1-188 isoform P01116-2 G12C): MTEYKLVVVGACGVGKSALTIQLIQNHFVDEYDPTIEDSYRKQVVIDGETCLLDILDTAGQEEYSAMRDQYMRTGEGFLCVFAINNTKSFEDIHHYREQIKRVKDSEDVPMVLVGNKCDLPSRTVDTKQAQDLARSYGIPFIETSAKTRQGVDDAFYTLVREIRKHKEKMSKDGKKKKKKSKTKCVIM
- assay_explanation: MicroScale Thermophoresis (MST), GTP affinity
- Type: binding
readout_type: pKd
Note on units: pKd is unitless, being -log10 of a concentration expressed in mol/L.

# query: pKd of entry Nc1nc2c(ncn2[C@@H]2O[C@H](COP(=O)(O)OP(=O)(O)OP(=O)(O)O)[C@@H](O)[C@H]2O)c(=O)[nH]1
6.68

* * *

- target_desc: Rac-1 (Homo sapiens, UniProt P63000)
- assay_explanation: Ras GTP binding domain inhibition assay (Cy3-GTP/Cy5-GTP competition)
- condition_notes: with SOS, read-out: Rac-1 + SOS: % inh.
readout_type: inhibition at 20 µM

[
  {
    "molecule": "CO[C@H]1CC[C@@H](Nc2nc(-c3nccn3C)nc3sc(-c4ccn(C(C)C)n4)c(C)c23)C1 [drawing 1054]",
    "inhibition at 20 µM": "51 to 75%"
  },
  {
    "molecule": "COc1ccc(Cn2cnc(-c3nc(O)c4scc(-c5ccccn5)c4n3)c2)cc1 [drawing 974]",
    "inhibition at 20 µM": "1 to 25%"
  },
  {
    "molecule": "CCN(CC)C(=O)c1nc(-c2nccn2C)nc(O)c1O [drawing 964]",
    "inhibition at 20 µM": "1 to 25%"
  },
  {
    "molecule": "COC1CCN(c2nc(-c3nccn3C)nc3sc(-c4cnc(C5CC5)o4)c(-c4ccccc4)c23)C1 (centres unmarked) [drawing 977]",
    "inhibition at 20 µM": "1 to 25%"
  },
  {
    "molecule": "COCCNc1nc(-c2nccn2C)nc2sc(-c3cc(OC)ccc3Cl)c(-c3ccc(OC)cc3)c12 [drawing 1012]",
    "inhibition at 20 µM": "1 to 25%"
  }
]

State its inhibition at 20 µM on Rac-1 (Homo sapiens, UniProt P63000): CO[C@H]1C[C@@H](Nc2nc(-c3nccn3C)nc3sccc23)C1 [drawing 1038]
76 to 100%

What do you get for COC1CCC(Nc2nc(-c3nccn3C)nc3sc(-c4cccc5[nH]ncc45)c(-c4ccccc4)c23)C1 (centres unmarked) [drawing 1023] ?
51 to 75%

What do you get for O=C(NCc1ccccc1)c1nc(-c2ccccn2)nc(O)c1O [drawing 956] ?
51 to 75%

What do you get for CO[C@H]1CCC(Nc2nc(-c3nccn3C)nc3sc(-c4ccn(C)n4)c(-c4ccccc4)c23)C1 (some centres unmarked) [drawing 995] ?
51 to 75%

What do you get for Cn1ccc(-c2sc3nc(-c4nccn4C)nc(O)c3c2-c2ccccc2)n1 [drawing 1039] ?
26 to 50%

* * *

- System: KRas G12C mutant
- assay_explanation: Ras GTP binding domain inhibition assay (Cy3-GTP/Cy5-GTP competition)
- Set-up: species or system human
- condition_notes: 20 μM; without SOS
- Source text: The following method was developed as specific assay for the following proteins: KRas wild type, KRas Q61H mutant, KRas G12C mutant, KRas G12D mutant, HRas wild type, Rac-1, and Rho-A. […] The small GTPases proteins: KRas wild type. KRas Q61H mutant, KRas G12C mutant, KRas G12D mutants, HRas wild type, Rac-1, and Rho-A were expressed as His-tagged proteins. In addition, the Guanosine nucleotide Exchange Factor (GEF) Sos protein (residues 556-1049) was expressed as a His-tagged protein. […]
readout_type: KRas G12C mutant: % inh.

Solved entries:
[
  {
    "compound": "COc1nc(-c2ccccn2)nc(Nc2cnn(C)c2)c1OC [drawing 794]",
    "readout_type": "KRas G12C mutant: % inh.",
    "result": "0 (0% inhibition)"
  },
  {
    "compound": "O=C(c1nc(-c2ccccn2)nc(O)c1O)N1CCc2ccccc2C1 [drawing 832]",
    "readout_type": "KRas G12C mutant: % inh.",
    "result": "C (51-75% inhibition)"
  },
  {
    "compound": "COCC(C)Nc1nc(-c2nccn2C)nc2sc(-c3ccn(C)n3)c(-c3ccccc3)c12 (stereo not drawn) [drawing 864]",
    "readout_type": "KRas G12C mutant: % inh.",
    "result": "0 (0% inhibition)"
  },
  {
    "compound": "Cn1ccnc1-c1nc(O)c(O)c(C(=O)NC2CCC2)n1 [drawing 825]",
    "readout_type": "KRas G12C mutant: % inh.",
    "result": "C (51-75% inhibition)"
  },
  {
    "compound": "Oc1nc(-c2ncc3ccccn23)nc2c(-c3ccccn3)csc12 [drawing 834]",
    "readout_type": "KRas G12C mutant: % inh.",
    "result": "C (51-75% inhibition)"
  },
  {
    "compound": "CC(C)CN(C)C(=O)c1nc(-c2ccccn2)nc(O)c1O [drawing 798]",
    "readout_type": "KRas G12C mutant: % inh.",
    "result": "C (51-75% inhibition)"
  }
]

State its KRas G12C mutant: % inh. on KRas G12C mutant: COc1c(O)nc(-c2ccccn2)nc1Oc1ccccc1 [drawing 813]
C (51-75% inhibition)
